Tested on: RXF 393
procedure_summary: NCI tumour cell line growth inhibition, 48 h
The source made the active and inactive calls. No stated cut-off is given here; in the data, active = GI50 up to about 1.1 µM and inactive = higher.
assay_readout: GI50

Field: example entries. Status: answers known.
{"columns": ["structure", "assay_readout", "meas_value"],
 "data": [
  ["O=C1OC(c2ccccc2)=N/C1=C\\c1cccnc1", "GI50", "> 100 µM (inactive)"],
  ["CCOC(=O)/C=C(/C(=O)OCC)n1cc(C)c(=O)n(Cc2cnnn2CCCCOC(C)=O)c1=O", "GI50", "33.3 µM (inactive)"],
  ["O=C(c1ccccc1)N1C(=S)N(c2ccc([N+](=O)[O-])cc2)C(=N/c2ccccc2)/C1=N\\c1ccccc1", "GI50", "> 100 µM (inactive)"],
  ["C(=NCCN1CCOCC1)=NC1CCCCC1", "GI50", "> 100 µM (inactive)"]
]}

Now consider the entry below.
Sample COC(=O)c1c(C(=O)OC)c2ccccn2c1-c1cc(C)cc2c1C(=O)C=CC2=O , system: RXF 393. Its GI50 is 14.1 µM (inactive)

---

In this section, each of the compounds is paired with its reported GI50.
Tested on: K562
procedure_summary: NCI tumour cell line growth inhibition, 48 h
The source made the active and inactive calls. Cut-off read from the data, not from the text of the source: active = GI50 up to about 1.1 µM and inactive = higher.

Field: example entries. Status: answers known.
{"columns": ["compound", "GI50"],
 "data": [
  ["OC[C@H]1O[C@@H](n2cnc3c(S)ncnc32)[C@H](O)[C@@H]1O [THIOINOSINE]", "1290 µM (inactive)"],
  ["C(=NCCN1CCOCC1)=NC1CCCCC1", "> 100 µM (inactive)"],
  ["Nc1n[n+]([O-])c2ccc(Cl)cc2[n+]1[O-]", "10.3 µM (inactive)"]
]}

Input COc1ccccc1/C=C1\C(=O)N(C(=O)c2ccc(NC(C)=O)cc2)N=C1C . Output GI50: > 100 µM (inactive)

Input C/C=C\C(CC(=O)O)CC(=O)NCCC1CN(S(=O)(=O)C(F)(F)F)c2ccccc21 (stereo unspecified) . Output GI50: > 100 µM (inactive)

Input Cn1c(S)nnc1-c1csc(-c2ccc(Cl)cc2)n1 . Output GI50: > 100 µM (inactive)

Input COc1ccc2c(c1)C/C(=C\c1ccc(O)c(OC)c1)C2=O . Output GI50: > 100 µM (inactive)

Input CC1(C)C(O)C[C@]23CCC[C@](C)(C[C@@H](O)C12)C3 (stereo partly specified) . Output GI50: > 100 µM (inactive)

Input CN1CCc2c1nc(-c1ccccc1)c1c2N(C)CC1 . Output GI50: 25.4 µM (inactive)

Input COc1cc(OC)c2c(=O)cc(-c3ccc(OC)c(OC)c3OC)oc2c1 . Output GI50: > 100 µM (inactive)

Input O=C(CSc1nc2ccc(I)cc2c(=O)n1Cc1ccccc1)Nc1ccc(Br)cc1 . Output GI50: 24.7 µM (inactive)

---

Test system: KM12
procedure_summary: NCI tumour cell line growth inhibition, 48 h
Activity calls are given as the source filed them. Rule as the data show it: active = GI50 up to about 1.1 µM and inactive = higher.
Tick one outcome: active, inactive

Illustrative cases are given below, each with its answer.
{"columns": ["compound", "test_system", "category"],
 "data": [
  ["CCOC(CN=C=S)OCC", "KM12", "inactive"],
  ["CCOC(=O)C1C(=O)CC(=O)C2CCCCC21 (stereo not drawn)", "KM12", "inactive"],
  ["O=P1(c2ccccc2)c2ccccc2CCc2ccccc21", "KM12", "inactive"],
  ["Oc1ccc(Cn2c(-c3ccc(O)cc3)nc3ccccc32)cc1", "KM12", "inactive"],
  ["CCCCNC1=C(C(=O)OCC)/C(=N/NC(=O)c2ccccc2O)CO1", "KM12", "inactive"],
  ["CCc1cccc(C)c1NC(=O)CCc1nnc(S)[nH]1", "KM12", "inactive"]
]}

Prompt: Hi team, can someone confirm the assay call for CCOC(=O)c1cc2c(nc1N)-c1ncccc1CC2 ?
Completion: inactive

Prompt: Hi team, can someone confirm the assay call for O=C(O)c1c[nH]cc1C(=O)O ?
Completion: inactive

Prompt: Hi team, can someone confirm the assay call for O=C1C(Br)=CC2(C=C1Br)CCNC1=C2C2=NCCc3c[nH]c(c32)C1=O ?
Completion: active

Prompt: Hi team, can someone confirm the assay call for Brc1ccc2[nH]cc(-c3nc(-c4c[nH]c5ccccc45)cs3)c2c1 ?
Completion: inactive

Prompt: Hi team, can someone confirm the assay call for Cc1cccc(N2CCN(S(=O)(=O)c3ccc(Cl)cc3)C2=N)c1C ?
Completion: inactive
